Experiment: In vivo mouse study of 6a and 6b, rectal temperature and survival at 22° C. room temperature
Set-up: species or system Mus Musculus C57BL/6
Details: female, C57BL/6, in vivo; mouse, IV
MEASURED_QUANTITY: LD50

>>> result("N#Cc1cccc(C(=O)/N=C(\\Nc2ccc(Cl)cc2)N[C@@H](Cn2ccnc2)c2ccc(Cl)cc2Cl)c1 [Compound 6a]")
"> 40 mg/kg"

---

Assay: Human pharmacokinetics of oral almitrine dimesylate
Type: in vivo
Details: human, plasma; single 200 mg oral dose, humans [121]; read-out: mean cmax plasma concentration
MEASURED_QUANTITY: Cmax (nM)

>>> result("C=CCNc1nc(NCC=C)nc(N2CCN(C(c3ccc(F)cc3)c3ccc(F)cc3)CC2)n1.CS(=O)(=O)O [almitrine dimesylate]")
600
